# experimental.details: AlamarBlue cytotoxicity, RISE and nano-Ca@RISE, hFOB 1.19
# Assay type: cell-based, human
# test.settings: human, hFOB 1.19 osteoblast cells; hFOB 1.19; 35 μM; 24 h; read-out: Relative cell viability (% RCL)
parameter: viability at 24 h, 35 µM

Exercise: Record request: viability at 24 h, 35 µM value, item O=P(O)(O)C(O)(Cc1cccnc1)P(=O)(O)O [RISE, Monosodium risedronate hemipentahydrate]
Solution: 100%

---

# experimental.details: AlamarBlue cytotoxicity, RISE and nano-Ca@RISE, hFOB 1.19
# Assay type: cell-based, human
# test.settings: human, hFOB 1.19 osteoblast cells; hFOB 1.19; 45 μM; 24 h; read-out: Relative cell viability (% RCL)
parameter: viability at 24 h, 45 µM (%)
Your answer is read as %, so omit the unit and give the number.

Exercise: Record request: viability at 24 h, 45 µM value, item O=P(O)(O)C(O)(Cc1cccnc1)P(=O)(O)O [RISE, Monosodium risedronate hemipentahydrate]
Solution: 100

---

# experimental.details: AlamarBlue cytotoxicity, RISE and nano-Ca@RISE, hFOB 1.19
# Type: cell-based, human
# test.settings: human, hFOB 1.19 osteoblast cells; hFOB 1.19; 50 μM; 24 h; read-out: Relative cell viability (% RCL)
parameter: viability at 24 h, 50 µM (%)
Your answer is read as %, so omit the unit and give the number.

Exercise: Record request: viability at 24 h, 50 µM value, item O=P(O)(O)C(O)(Cc1cccnc1)P(=O)(O)O [RISE, Monosodium risedronate hemipentahydrate]
Solution: 99

---

# experimental.details: AlamarBlue cytotoxicity, RISE and nano-Ca@RISE, hFOB 1.19
# Format: cell-based, human
# test.settings: human, hFOB 1.19 osteoblast cells; hFOB 1.19; 40 μM; 48 h; read-out: Relative cell viability (% RCL)
# Method: Cell culture methods. The MDA-MB-231 cell line was incubated with DMEM, 1% Pen-Strep, and 10% FBS at 37° C. in 5% CO2. The hFOB 1.19 cell line was incubated with 1:1 DMEM:F-12, 0.3 mg/mL G418, and 10% FBS at 34° C. in 5% CO2. Cell passages were performed weekly at 80% of cell confluency, media was exchanged twice a week. Cell treatments. […] After the AlamarBlue® assay, the fluorescence (λexc=560 nm, λem=590 nm) was evaluated employing an Infinite M200 PRO Tecan Microplate Reader. […]
parameter: viability at 48 h, 40 µM
Remember to follow the number with its unit.

Exercise: Record request: viability at 48 h, 40 µM value, item O=P(O)(O)C(O)(Cc1cccnc1)P(=O)(O)O [RISE, Monosodium risedronate hemipentahydrate]
Solution: 100%

---

# experimental.details: AlamarBlue cytotoxicity, RISE and nano-Ca@RISE, hFOB 1.19
# Assay type: cell-based, human
# test.settings: human, hFOB 1.19 osteoblast cells; hFOB 1.19; 50 μM; 72 h; read-out: Relative cell viability (% RCL)
parameter: viability at 72 h, 50 µM (%)
Your answer is read as %, so omit the unit and give the number.

Exercise: Record request: viability at 72 h, 50 µM value, item O=P(O)(O)C(O)(Cc1cccnc1)P(=O)(O)O [RISE, Monosodium risedronate hemipentahydrate]
Solution: 98
